The origin of these recorded values is patent US20250223339A1.

molecular target: recombinant SARS-CoV-2 Delta RBD; assay: BLI
Hi there, I'd appreciate the recorded pKd for every entry that follows.
Please treat pKd as minus the base-10 logarithm of the molar concentration.

# input Return pKd for the following binder: ADI-75754 (antibody, V domains shown) VH: QVQLVQSGGDLVQPGGSLRLSCVASGFTFSNYEMNWVRQGPGKGLEWISYISTSGSTYYYADSVKGRFTISRDNARNSLYLQMDSLRVEDTAIYYCLTHPQPQYVRPTQVVWFDPWGQGTLVTVSS VL: EMTMTQSPGTLSLSPGERATLSCRASESVSSEYLAWHQQRPGQAPRLLIYGASSRPTGIPDRFSGSGSGTDFTLTISRLEPEDFAVYYCHQFASAPITFGQGTRLEIK
# output 8.46

# input Return pKd for the following binder: ADI-75700 (antibody, V domains shown) VH: QVQLQQWGAGLLKPSETLSLTCGVYDGSFSDYFWNWIRQPPGKGLEWIGELTHTGSTNYNPSLKSRVTILADTSKSQFSLNLSSVTAADTAVYYCARGDFYSTRLAFDLWGQGTTVTVSS VL: EIALTQSPATLSLSPGERATLSCRASQSVSTYLAWYQQKPGQAPRLLIYDASKRATGIPARFNGSGSGTDFTLTISSLEPEDFAVYYCQQRSTWPTFGGGTKVDIK
# output 8.91

# input Return pKd for the following binder: ADI-75859 (antibody, V domains shown) VH: QVQLVQSGGGVGQPGRSLRLSCAASGFTFGHYGMHWVRQAPGKGLEWVAAIIYDGSDKQYADSVKGRFTISRDNSKNTVYLQMNSLRPEDTAIYFCAKLGGLYCSGGNCFSGYFDYWGQGTLVTVSS VL: ETTLTQSPSSLSASVGDRVTITCRASQGISNSLAWYQQKPGKAPKLLLYAASTLESGVPSRFSGSGSGTDFTLTIASLQPEDFATYYCQQYYSSVRFTFGQGTILDLN
# output 9.09

# input Return pKd for the following binder: ADI-75738 (antibody, V domains shown) VH: QVQLQQWGAGLLKPSETLSLTCGVHDGAFSGYFWNWIRQSPVKGLEWIGEVTHSGNTNYNPSLKSRVTMSVDASKNEFSLNLTSVTAADTAVYYCARGDFYSTRLAFDVWGQGSMVTVSS VL: EIVLTQSPATLSLSPGERATLSCRASQSVSTYLAWYQQRPGQAPRLLIYDASNRATGIPARFSGSGSETDFTLTISSLEPEDFAVYYCQQRSNWLTFGGGTKVEIK
# output 8.82
